- target-system: Adenosine receptor A2a (Homo sapiens, UniProt P29274)
- Sequence (P29274 whole entry): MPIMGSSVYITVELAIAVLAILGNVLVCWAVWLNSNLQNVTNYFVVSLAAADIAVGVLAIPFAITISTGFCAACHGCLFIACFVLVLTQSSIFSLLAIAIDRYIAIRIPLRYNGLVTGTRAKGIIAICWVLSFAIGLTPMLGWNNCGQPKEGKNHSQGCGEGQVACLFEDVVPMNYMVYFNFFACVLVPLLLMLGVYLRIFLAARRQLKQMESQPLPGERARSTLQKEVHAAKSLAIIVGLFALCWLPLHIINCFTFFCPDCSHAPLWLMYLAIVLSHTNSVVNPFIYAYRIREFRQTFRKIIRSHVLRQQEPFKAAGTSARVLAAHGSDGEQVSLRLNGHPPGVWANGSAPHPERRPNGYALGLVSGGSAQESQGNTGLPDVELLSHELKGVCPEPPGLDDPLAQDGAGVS
readout-kind: Ki (nM)
Just the number in nM, nothing appended.

What reported Ki corresponds to "Nc1nc(-c2ccccc2)nc2cn(Cc3ccccc3)nc12" on Adenosine receptor A2a (Homo sapiens, UniProt P29274)? 300

* * *

- target-system: Adenosine receptor A2a (Homo sapiens, UniProt P29274)
- test-method-notes: Displacement of [3H]ZM241385 at human A2A receptor expressed in CHO cell membrane at 1 uM after 60 mins by scintillation counting method
- Assay type: cell membranes
Could you label it yes if measured inhibition is 9% or higher, and no otherwise?

Here are 9 compounds together with their reported answers.
[
  {
    "chemical-structure": "Nc1nc(-c2ccccc2)nc2nn(-c3ccccc3)nc12",
    "label-value": "no"
  },
  {
    "chemical-structure": "COc1ccc(-n2cc3nc(-c4cccs4)[nH]c(=O)c3n2)cc1",
    "label-value": "no"
  },
  {
    "chemical-structure": "COc1ccc(-n2cc3nc(-c4cccs4)nc(N)c3n2)cc1",
    "label-value": "yes"
  },
  {
    "chemical-structure": "Nc1nc(Cc2cccs2)nc2cn(-c3ccccc3)nc12",
    "label-value": "yes"
  },
  {
    "chemical-structure": "O=C(Nc1nc(-c2cccs2)nc2cn(-c3ccccc3)nc12)c1ccncc1",
    "label-value": "no"
  },
  {
    "chemical-structure": "O=C(Nc1nc(-c2cccs2)nc2cn(-c3ccccc3)nc12)c1ccccc1",
    "label-value": "no"
  },
  {
    "chemical-structure": "O=C(c1ccco1)N(C(=O)c1ccco1)c1nc(-c2cccs2)nc2cn(-c3ccccc3)nc12",
    "label-value": "no"
  },
  {
    "chemical-structure": "O=c1[nH]c(-c2ccco2)nc2cn(-c3ccccc3)nc12",
    "label-value": "yes"
  },
  {
    "chemical-structure": "Cc1nc2nn(-c3ccccc3)nc2c(=O)[nH]1",
    "label-value": "yes"
  }
]

Turning now to a further compound:
Say whether "Cc1nc2cn(Cc3ccccc3)nc2c(=O)[nH]1" shows inhibition of 9% or more. no

* * *

- target-system: Adenosine receptor A1 (Homo sapiens)
- test-method-notes: Displacement of [3H]DPCPX at human A1 receptor expressed in CHO cell membrane at 1 uM after 120 mins by scintillation counting method
- Type: cell membranes
Measured inhibition, listed per entry.

Example results:
[
  {
    "chemical-structure": "O=c1[nH]c(-c2ccco2)nc2cn(-c3ccccc3)nc12",
    "target-system": "Adenosine receptor A1 (Homo sapiens)",
    "inhibition": "1%"
  },
  {
    "chemical-structure": "Cc1nc2cn(C)nc2c(=O)[nH]1",
    "target-system": "Adenosine receptor A1 (Homo sapiens)",
    "inhibition": "1%"
  },
  {
    "chemical-structure": "COc1ccc(-c2nc(N)c3nn(-c4ccc(OC)cc4)cc3n2)cc1",
    "target-system": "Adenosine receptor A1 (Homo sapiens)",
    "inhibition": "1%"
  },
  {
    "chemical-structure": "COc1ccc(C(=O)Nc2nc(-c3cccs3)nc3cn(-c4ccccc4)nc23)cc1",
    "target-system": "Adenosine receptor A1 (Homo sapiens)",
    "inhibition": "1%"
  },
  {
    "chemical-structure": "Cc1nc2cn(Cc3ccccc3)nc2c(=O)[nH]1",
    "target-system": "Adenosine receptor A1 (Homo sapiens)",
    "inhibition": "6%"
  }
]

Which inhibition is listed for "O=C(Nc1nc(-c2cccs2)nc2cn(-c3ccccc3)nc12)c1ccncc1" ? 20%

* * *

- target-system: Adenosine receptor A3 (Homo sapiens)
- test-method-notes: Displacement of [125I]AB-MECA at human […] receptor expressed in CHO cell membrane at 1 uM after 60 mins by scintillation counting method
- Assay type: cell membranes
readout-kind: inhibition

[
  {
    "chemical-structure": "O=c1[nH]c(-c2ccccc2)nc2nn(-c3ccccc3)nc12",
    "target-system": "Adenosine receptor A3 (Homo sapiens)",
    "inhibition": "23%"
  },
  {
    "chemical-structure": "Cc1nc(N)c2nn(-c3ccccc3)nc2n1",
    "target-system": "Adenosine receptor A3 (Homo sapiens)",
    "inhibition": "1%"
  },
  {
    "chemical-structure": "Nc1nc(-c2ccccc2)nc2nn(-c3ccccc3)nc12",
    "target-system": "Adenosine receptor A3 (Homo sapiens)",
    "inhibition": "1%"
  },
  {
    "chemical-structure": "Nc1nc(-c2ccc(Cl)cc2)nc2cn(-c3ccccc3)nc12",
    "target-system": "Adenosine receptor A3 (Homo sapiens)",
    "inhibition": "4%"
  },
  {
    "chemical-structure": "Cn1cc2nc(-c3ccccc3)[nH]c(=O)c2n1",
    "target-system": "Adenosine receptor A3 (Homo sapiens)",
    "inhibition": "20%"
  },
  {
    "chemical-structure": "Cn1cc2nc(-c3ccccc3)nc(N)c2n1",
    "target-system": "Adenosine receptor A3 (Homo sapiens)",
    "inhibition": "1%"
  }
]

Suppose we examine the compound "Cc1nc2cn(C)nc2c(=O)[nH]1" ; what inhibition value has been reported? 1%

Requested field: inhibition. Item: "COc1ccc(-c2nc3cn(C)nc3c(=O)[nH]2)cc1" 1%

So what's the measured inhibition for this one? "O=c1[nH]c(-c2ccco2)nc2cn(-c3ccccc3)nc12" 30%

* * *

- target-system: Adenosine receptor A2b (Homo sapiens)
- test-method-notes: Antagonist activity at human A2B receptor expressed in CHO cells assessed as inhibition of NECA-stimulated cAMP production at 1 uM by scintillation counting method
- Assay type: functional, cell-based
readout-kind: inhibition (%)
Reply with just the number (in %).

[
  {
    "chemical-structure": "COc1ccc(-c2nc(NC(=O)c3ccccc3)c3nn(-c4ccccc4)cc3n2)cc1",
    "inhibition / %": 1
  },
  {
    "chemical-structure": "Cc1nc2nn(-c3ccccc3)nc2c(=O)[nH]1",
    "inhibition / %": 1
  },
  {
    "chemical-structure": "Cc1nc2cn(-c3ccccc3F)nc2c(=O)[nH]1",
    "inhibition / %": 1
  },
  {
    "chemical-structure": "Nc1nc(-c2cccs2)nc2cn(-c3ccccc3)nc12",
    "inhibition / %": 27
  },
  {
    "chemical-structure": "O=c1[nH]c(-c2ccccc2)nc2cn(-c3ccccc3)nc12",
    "inhibition / %": 5
  },
  {
    "chemical-structure": "O=C(Cc1ccccc1)Nc1nc(-c2ccccc2)nc2cn(Cc3ccccc3)nc12",
    "inhibition / %": 1
  },
  {
    "chemical-structure": "O=c1[nH]c(-c2ccco2)nc2cn(-c3ccccc3)nc12",
    "inhibition / %": 1
  },
  {
    "chemical-structure": "Nc1nc(-c2ccc(O)cc2)nc2cn(-c3ccccc3)nc12",
    "inhibition / %": 7
  },
  {
    "chemical-structure": "O=C(Nc1nc(-c2cccs2)nc2cn(-c3ccccc3)nc12)c1ccco1",
    "inhibition / %": 1
  },
  {
    "chemical-structure": "Cc1nc2cn(Cc3ccccc3)nc2c(=O)[nH]1",
    "inhibition / %": 1
  }
]

Now look at this entry.
What does the data say about its inhibition? Entry: "Cc1nc2cn(-c3ccccc3)nc2c(=O)[nH]1" 3

* * *

- target-system: UniProt:P29274
- test-method-notes: Displacement of [3H]ZM241385 at human A2A receptor expressed in CHO cell membrane at 1 uM after 60 mins by scintillation counting method
- Type: cell membranes
Listing of entries alongside the reported inhibition.
Quick note: give the figure in %, leave out the unit.

Please review the entries below; each comes with its answer.
[
  {
    "chemical-structure": "Cc1nc2cn(-c3ccccc3F)nc2c(=O)[nH]1",
    "inhibition [%]": 1
  },
  {
    "chemical-structure": "COc1ccc(-c2nc(N)c3nn(-c4ccccc4)cc3n2)cc1",
    "inhibition [%]": 1
  }
]

What does the record list as inhibition for "COc1ccc(C(=O)Nc2nc(-c3cccs3)nc3cn(-c4ccccc4)nc23)cc1" ? 1

* * *

Below is a list of entries, each paired with its recorded inhibition value.
- target-system: Adenosine receptor A2a (Homo sapiens)
- test-method-notes: Displacement of [3H]ZM241385 at human A2A receptor expressed in CHO cell membrane at 1 uM after 60 mins by scintillation counting method
- Format: cell membranes
Write the value in % as a bare number.

[
  {
    "chemical-structure": "O=c1[nH]c(-c2ccccc2)nc2cn(Cc3ccccc3)nc12",
    "target-system": "Adenosine receptor A2a (Homo sapiens)",
    "unit-of-measure": "%",
    "inhibition": 1
  },
  {
    "chemical-structure": "Cn1cc2nc(-c3ccccc3)[nH]c(=O)c2n1",
    "target-system": "Adenosine receptor A2a (Homo sapiens)",
    "unit-of-measure": "%",
    "inhibition": 1
  },
  {
    "chemical-structure": "COc1ccc(-c2nc(NC(=O)c3ccncc3)c3nn(-c4ccccc4)cc3n2)cc1",
    "target-system": "Adenosine receptor A2a (Homo sapiens)",
    "unit-of-measure": "%",
    "inhibition": 1
  },
  {
    "chemical-structure": "COc1ccc(-c2nc3cn(C)nc3c(=O)[nH]2)cc1",
    "target-system": "Adenosine receptor A2a (Homo sapiens)",
    "unit-of-measure": "%",
    "inhibition": 1
  }
]

# lookup: inhibition of "O=C(Nc1nc(-c2cccs2)nc2cn(-c3ccccc3)nc12)c1cccs1" 7

Consider the compound "COc1ccc(-c2nc(NC(=O)c3ccccc3)c3nn(-c4ccccc4)cc3n2)cc1" and give its measured inhibition. 1

Dear colleague, I am looking for the recorded inhibition of the following compound: "Cn1cc2nc(-c3ccccc3)nc(N)c2n1" 1

Quick one: inhibition for "Nc1nc(-c2ccc(Cl)cc2)nc2cn(-c3ccccc3)nc12" ? 1

Find the recorded inhibition belonging to "Cc1nc(N)c2nn(-c3ccccc3)nc2n1" and report it. 6

// inhibition lookup, key: "O=C(Nc1nc(-c2cccs2)nc2cn(-c3ccccc3)nc12)c1cccnc1" 3

So what's the measured inhibition for this one? "Cc1nc2cn(C)nc2c(=O)[nH]1" 1

Numbers sourced from ChEMBL document CHEMBL3751669.
